Tested On: Protein kinase C (PKC)
Assay Info: Inhibitory concentration required against Protein kinase C (isolated from rat brain) in PKC assay performed with 4 ug phosphatidyl serine:diacylglycerol (2:1)
Measurement Type: log10 of IC50 (log10 of the value in µM)
Short version: log10 scale, IC50, µM.

What does the data say about its log10 of IC50? Entry: CCCCCCCCCCC#Cc1csc([C@@H](O)[C@@H](N)CO)c1 1.03

Try the compound CCCCCCCCCCCCc1cccc([C@@H](O)[C@@H](N)CO)c1 0.57

# repeat for CCCCCCCCCCc1cc([C@@H](O)[C@@H](N)CO)on1 1.64

Lookup CCCCCCCCC#Cc1cccc([C@@H](O)[C@@H](N)CO)n1 1.12

One more compound: CCCCCCCCCC#Cc1cccc([C@@H](O)[C@@H](N)CO)c1 0.99

Input CCCCCCCCCC#Cc1cccc([C@@H](O)[C@@H](N)CO)n1 1.00

Next record, please: CCCCCCCCCCC#Cc1cccc([C@@H](O)[C@@H](N)CO)c1 0.43

// query: CCCCCCCCCC#Cc1ccc([C@@H](O)[C@@H](N)CO)s1 0.67

N[C@@H](CO)[C@H](O)c1cccc(C#CCCCCCc2ccccc2)n1 ? 1.20

Now give it for CCCCCCCCCCCCCCCCc1cccc([C@@H](O)[C@@H](N)CO)n1 too. 0.65

Can you check CCCCCCCCCCCCc1cc([C@@H](O)[C@@H](N)CO)on1 next? 0.96

Try the compound N[C@@H](CO)[C@H](O)c1ccc(C#CCCCCc2ccccc2)s1 1.56

Now consider CCCCCCCCCCCCC/C=C/[C@@H](O)[C@@H](N)CO [SPHINGOSINE] and answer again. 0.83

Also check CCCCCCCCCCc1cccc([C@@H](O)[C@@H](N)CO)n1 1.48

And for CCCCCCCCCCCc1cccc([C@@H](O)[C@@H](N)CO)n1 ? 1.00

Moving on to CCCCCCCCCCC#Cc1ccc([C@@H](O)[C@@H](N)CO)s1 0.46

How about this compound: CCCCCCCCCC/C=C/c1csc([C@@H](O)[C@@H](N)CO)c1 0.70

Param item: CCCCCCCCCc1ccc([C@@H](O)[C@@H](N)CO)s1 1.00

Let us now turn to CCCCCCCC#Cc1ccc([C@@H](O)[C@@H](N)CO)s1 1.30

CCCCCCCCCCCCc1ccc([C@@H](O)[C@@H](N)CO)s1 ? 1.15

Entry CCCCCCCCCCCCc1cccc([C@@H](O)[C@@H](N)CO)n1 please 1.04

Now this one: CCCCCCCCCCCC#Cc1ccc([C@@H](O)[C@@H](N)CO)s1 0.54
